# Tested on: LXRb homodimer (NR concentration 270 nM)
# protocolSummary: PBM binding z-score (relative to random genomic background probes); higher = stronger binding; sequences stand for … in GC…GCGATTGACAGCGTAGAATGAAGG
attributeMeasured: PBM binding z-score
API doc: respond with a numeric literal and nothing else, no unit.

For CCTACTGGGCCAAAGGTCTTTGATTCCAATGCTC , what is its reported PBM binding z-score?
-0.841

Another: CCTAGTTGGTCAGGAGGTCACATACCGGATATGA
0.594

What do we get for AATACAGGATCACTAGGCCAGAGTAGGTACGAAT ?
-0.237

Likewise for TAGCCTAGGTCATAGGGCCAGTATAGTACGCATC ?
-0.248

Next up: TGAATGAAGTTAAAGATCAGGGAACGTGGCGTCG
-0.518

Do the same for CCTACTGGGCCAACAAGGTCATTGATGCCGATAA please
-0.582

Follow-up entry: CCTTACGGGTAACTCCAGGTTATAGCATCGGAGT
0.0113

Entry CCTACTGGGCCATCAGGTGATTGATATCAACGTT please
-0.864

For TTACGAAGGTGAAAGGTCGTTGATGCACGCCTTG then?
-0.598

Try the sequence CCTAGTTGGTCAGGGGGTCACACACCGGATATGA
7.75

Can you check CCTAGTTGGTCAAGGTCTCACACGCTATAGGTAC next?
0.483

For CGAACTAGGTCACCAGGACCGTGAAGAGGTTGGA then?
-0.339

Follow-up item: ATATGTAGGTTAGCTGGGGTCATTCCGACTAGGC
1.3

Then ATCGAAATGTCGTGAGGTGAGTATACAGAAAGGC ?
-0.00242

Record: TGAATGAGGTTTAAGATCAGGGAACGTGGCGTCG
-0.285

Likewise for CCTACTGGGCCAAGGTCATTGACCAGTCAAAGCA ?
-0.702

For CCTACTGGGCCAAAAATGTCATTGATGCCGATAA then?
-0.655

Please give the result for TAGCCTAGGTCAGATCGGGGCAGTATACGCTATA too.
0.212

Now consider TCTCGGAGGACACGAAAGGTCAGTGCTCGACATC and answer again.
-0.000616

Please give the result for TTACCAAGGTTAAAGGTCGTTGATGCACGCCTTG too.
0.439

Next sequence: AGAGTGAGGTTACCAAAGATCAGGGAAACGCTTG
0.461

Same thing, different sequence: CCAGACAGGTGAAAGGTAACTCACTCTGGTACGC
-0.466

Would you kindly repeat that for CCTACTGGGCCACGAAAGGTAATTGATTCAGTGA ?
-0.777

What do you have for CGAACTAGGTCACCCGGACAGTGAAGAGGTTGGA ?
0.00893

Follow-up entry: GCTCGGGGGACAAGGTCAGAGCTTTGTCCGTAGA
4.29

Another: CGAACTAGCTCAAGGACAGTGAATCTCCGCACGC
-0.571

---

# Test system: THRa homodimer (NR concentration 90 nM)
# protocolSummary: PBM binding z-score (relative to random genomic background probes); higher = stronger binding; sequences stand for … in GC…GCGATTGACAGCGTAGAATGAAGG
Rule: PBM binding z-score of 0.3 or more gives condition met; anything lower gives condition not met.

Reported PBM binding z-score reaches at least 0.3 for ACTCGGAGGACAAAGGTGAGAGCTACGCCAGTGA ?
condition not met

// same read-out, input: CGAACTAGGTCAGAGCAGGACAGTGAAGGATGAT
condition not met

And TCTAGTTGGTTACGGAGGTCACACACGACGGGTA ?
condition met

Entry to check: CTATGTAGGTTAAGGGGGACATTCAGTTTGAAAG
condition met

Query CGAAATAGGTCAAAGGACAGTGAAAGGCGACGTA next
condition not met

Note, next up: CCTGGCAGGCCAGGGTCACTCAAGCATTTCGCTT
condition met

Field entry: CCTACTGGGCGACGAAAGGTCATTGATTCAGTGA
condition not met

What do we get for CCTGCTAGGTCAATGGTCAGCTAAAGCAGCTCGC ?
condition met

How about this sequence: CGAACTAGGTCAAAGGACAGTGATAGGCGACGTA
condition met

Thanks! And TCGAGTAGGTTACGGGGGCATTGAGGGATGAAGA ?
condition met

Ok, now CCGAGTAGGTTACGAGGGGGCATTCACTGCGAAT
condition met
